Test system: HL-60
Assay: NCI tumour cell line growth inhibition, 48 h
The source made the active and inactive calls. Rule as the data show it: active = GI50 up to about 1.1 µM and inactive = higher.
// classify into 1 (yes) (active), 0 (no) (inactive)

See these solved cases before continuing.
CC1(C)CC(=O)c2c(nc(SSc3nc4c(c(-c5ccc(Br)cc5)c3C#N)C(=O)CC(C)(C)C4)c(C#N)c2-c2ccc(Br)cc2)C1; 0 (no)
O=C(NNC(=O)c1ccco1)c1ccco1; 0 (no)
COc1ccc(C2S/C(=C\c3cccc(O)c3)C(=O)N2NC(=O)Cc2ccccc2)cc1 (stereo unspecified); 0 (no)
NC(=O)CNC(=O)[C@@H]1C[C@@H](OCCC(=O)O)CN1C(=O)OCc1ccccc1; 0 (no)

// next entry
Q: Which result was noted for this compound in the test: `C/C(=C\COP(=O)(O)OP(=O)(O)O)CC/C=C(\C)CNc1ccccc1`
Result: 1 (yes)

These entries and their values trace back to ChEMBL document CHEMBL1201862.
